Recorded measurements of IC50 (log10 M), one per entry
Test system: KASUMI1
Experiment: IC50 (cell viability) (log10 M)
Conditions: 4 days
Where a name gives a salt, the structure may show the parent alone.
MEASURED PARAMETER: IC50 (log10 M)

| COMPOUND | RELATION SYMBOL | VALUE |
| --- | --- | --- |
| CN(C)C1CCN(C(=O)c2ccc(NC(=O)Nc3ccc(-c4nc(N5CCOCC5)nc(N5CCOCC5)n4)cc3)cc2)CC1 | = | -6.27 |
| O=C(/C=C/c1cccc(S(=O)(=O)Nc2ccccc2)c1)NO | = | -7.21 |
| FC(F)c1nc2ccccc2n1-c1nc(N2CCOCC2)nc(N2CCOCC2)n1 | = | -6.2 |
| COc1cccc2c1C(=O)c1c(O)c3c(c(O)c1C2=O)C[C@@](O)(C(C)=O)C[C@@H]3O[C@H]1C[C@H](N)[C@H](O)[C@H](C)O1 [Daunorubicin HCl] | = | -6.96 |
| Nc1cccc2c1CN(C1CCC(=O)NC1=O)C2=O (centres undefined) [Lenalidomide] | > | -5 |
| O=C(c1cc(Cc2n[nH]c(=O)c3ccccc23)ccc1F)N1CCN(C(=O)C2CC2)CC1 | > | -5 |
| Nc1nc(Cl)nc2c1ncn2[C@H]1C[C@H](O)[C@@H](CO)O1 | = | -6.94 |
| O=C(NC[C@H](O)CO)c1ccncc1Nc1ccc(I)cc1F | = | -7.59 |
| CN(C)C/C=C/C(=O)Nc1cc2c(Nc3ccc(F)c(Cl)c3)ncnc2cc1O[C@H]1CCOC1 | = | -5.76 |
| Cn1cnc2c(F)c(Nc3ccc(Br)cc3Cl)c(C(=O)NOCCO)cc21 | > | -5 |
| Clc1ccc(Nc2nnc(Cc3ccncc3)c3ccccc23)cc1 | = | -5.26 |
| Cc1ccc(C(=O)Nc2ccc(CN3CCN(C)CC3)c(C(F)(F)F)c2)cc1C#Cc1cnc2cccnn12 | = | -6.5 |
| c1cc(-c2sc(-c3ccncc3)c(-c3ccncc3)c2-c2ccncc2)ccn1 | > | -5 |
| O=c1c(N=Nc2ccc(S(=O)(=O)O)cc2)c(-c2ccc([N+](=O)[O-])cc2)[nH]n1-c1ccccc1 | > | -5 |
| CC(C)(C)c1cc(NC(=O)Nc2ccc(-c3cn4c(n3)sc3cc(OCCN5CCOCC5)ccc34)cc2)no1 | = | -6.48 |
| CNC(=O)c1cc(Oc2ccc(NC(=O)Nc3ccc(Cl)c(C(F)(F)F)c3)cc2)ccn1 | > | -6 |
| COc1cc2ncnc(Nc3ccc(F)c(Cl)c3)c2cc1OCCCN1CCOCC1 | > | -5 |
| COCC[n+]1c2c(n(Cc3cnccn3)c1C)C(=O)c1ccccc1C2=O | < | -8.34 |
| C#Cc1cccc(Nc2ncnc3cc(OCCOC)c(OCCOC)cc23)c1 [Erlotinib HCl] | > | -5 |
| Nc1nc2[nH]cc(CCc3ccc(C(=O)N[C@@H](CCC(=O)O)C(=O)O)cc3)c2c(=O)[nH]1 | > | -5 |
| COc1cc([C@@H]2c3cc4c(cc3[C@@H](O[C@@H]3O[C@@H]5CO[C@@H](C)O[C@H]5[C@H](O)[C@H]3O)[C@H]3COC(=O)[C@H]23)OCO4)cc(OC)c1O [Etoposide] | = | -5.78 |
| O=C(NOC[C@H](O)CO)c1ccc(F)c(F)c1Nc1ccc(I)cc1F | = | -7.93 |
| NC(=O)c1ccc2nc(-c3ccc(Oc4ccc(Cl)cc4)cc3)[nH]c2c1 | > | -5 |
| Cc1cc(C(=O)NOCCO)c(Nc2ccc(I)cc2F)n(C)c1=O | = | -8.22 |
| Cc1cc(C(C)Nc2ccccc2)c2nc(N3CCOCC3)cc(=O)n2c1 (centres undefined) | > | -5 |
| CC[C@H](Nc1ncnc2[nH]cnc12)c1nc2cccc(F)c2c(=O)n1-c1ccccc1 | = | -5.08 |
| CS(=O)(=O)OCCCCOS(C)(=O)=O | > | -5 |
| CN(C)CC[C@H](CSc1ccccc1)Nc1ccc(S(=O)(=O)NC(=O)c2ccc(N3CCN(Cc4ccccc4-c4ccc(Cl)cc4)CC3)cc2)cc1[N+](=O)[O-] | = | -7.03 |
| CC1=C(/C=C/C(C)=C/C=C/C(C)=C/C(=O)O)C(C)(C)CCC1 | = | -5.14 |
| Cl[TeH]1(Cl)(Cl)OCCO1.N | > | -5 |
| CC(=O)Nc1cccc(-n2c(=O)n(C3CC3)c(=O)c3c(Nc4ccc(I)cc4F)n(C)c(=O)c(C)c32)c1 | = | -7.17 |
| CC1=C(/C=C/C(C)=C/C=C/C(C)=C/C(=O)Nc2ccc(O)cc2)C(C)(C)CCC1 [Fenretinide] | = | -5.47 |
| NC(=O)c1ccc(I)c([N+](=O)[O-])c1 | > | -5 |
| CN1CCC(COc2cnc(-c3cccc(Cn4nc(-c5cccc(C#N)c5)ccc4=O)c3)nc2)CC1 | > | -5 |

---

System: HL60
Assay: IC50 (cell viability) (log10 M)
Settings: 4 days
Structures can show the parent of a compound that is named as a salt.

| COMPOUND | RELATION SYMBOL | IC50 (log10 M) |
| --- | --- | --- |
| CO[C@H]1C[C@@H]2CC[C@@H](C)[C@@](O)(O2)C(=O)C(=O)N2CCCC[C@H]2C(=O)O[C@H]([C@H](C)C[C@@H]2CC[C@@H](OCCO)[C@H](OC)C2)CC(=O)[C@H](C)/C=C(\C)[C@@H](O)[C@@H](OC)C(=O)[C@H](C)C[C@H](C)/C=C/C=C/C=C/1C | > | -5 |
| NC(=O)[C@@H](CCC(F)(F)F)N(Cc1ccc(-c2ncon2)cc1F)S(=O)(=O)c1ccc(Cl)cc1 | > | -5 |
| CC[C@H](Nc1ncnc2[nH]cnc12)c1nc2cccc(F)c2c(=O)n1-c1ccccc1 | > | -5 |
| CCN(CC)CCCC(C)Nc1c2ccc(Cl)cc2nc2ccc(OC)cc12 (stereo not drawn) | = | -5.35 |
| CC1=C(/C=C/C(C)=C/C=C/C(C)=C/C(=O)Nc2ccc(O)cc2)C(C)(C)CCC1 [Fenretinide] | = | -5.46 |
| CN1CCC(CNc2ccc3ncc(-c4cccc(OC(F)(F)F)c4)n3n2)CC1 | = | -5.34 |
| CC[C@]1(O)C[C@H]2CN(CCc3c([nH]c4ccccc34)[C@@](C(=O)OC)(c3cc4c(cc3OC)N(C=O)[C@H]3[C@@](O)(C(=O)OC)[C@H](OC(C)=O)[C@]5(CC)C=CCN6CC[C@]43[C@@H]65)C2)C1 [Vincristine sulfate] | < | -8.48 |
| COC(=O)c1ccc2c(c1)NC(=O)/C2=C(\Nc1ccc(N(C)C(=O)CN2CCN(C)CC2)cc1)c1ccccc1 | > | -5 |
| COc1cc2nccc(Oc3ccc(NC(=O)NC4CC4)c(Cl)c3)c2cc1C(N)=O | > | -5 |
| Cc1cc(C(=O)NOCCO)c(Nc2ccc(I)cc2F)n(C)c1=O | = | -8.31 |
| Nc1nc(F)nc2c1ncn2[C@@H]1O[C@H](CO)[C@@H](O)[C@@H]1O | = | -5.2 |
| CNC(=O)c1cc(Oc2ccc(NC(=O)Nc3ccc(Cl)c(C(F)(F)F)c3)cc2)ccn1 | > | -6 |
| CN1CC[C@H](c2c(O)cc(O)c3c(=O)cc(-c4ccccc4Cl)oc23)[C@H](O)C1 | = | -7.12 |
| CN(C)C1CCN(C(=O)c2ccc(NC(=O)Nc3ccc(-c4nc(N5CCOCC5)nc(N5CCOCC5)n4)cc3)cc2)CC1 | = | -6.61 |
| CCN(CC)CCNC(=O)c1c(C)[nH]c(/C=C2\C(=O)Nc3ccc(F)cc32)c1C | > | -6 |
| Oc1cccc(-c2nc(N3CCOCC3)c3oc4ncccc4c3n2)c1 | = | -6.37 |
| NC(=O)c1ccc(-c2nc(-c3ccccn3)c(-c3ccc4c(c3)OCO4)[nH]2)cc1 | > | -5 |
| CC1(C)CCC(c2ccc(Cl)cc2)=C(CN2CCN(c3ccc(C(=O)NS(=O)(=O)c4ccc(N[C@H](CCN5CCOCC5)CSc5ccccc5)c(S(=O)(=O)C(F)(F)F)c4)cc3)CC2)C1 | = | -6.22 |
| CN1CCN(c2ccc3nc(-c4c(N)c5c(F)cccc5[nH]c4=O)[nH]c3c2)CC1 | > | -6 |
| NC(=O)NO [Hydroxyurea] | > | -5 |
| COc1cc(F)c(F)c(Nc2ccc(I)cc2F)c1NS(=O)(=O)C1(C[C@H](O)CO)CC1 | = | -7.42 |
| O=C(c1cc(Cc2n[nH]c(=O)c3ccccc23)ccc1F)N1CCN(C(=O)C2CC2)CC1 | > | -5 |
| Cc1ccc([N+](=O)[O-])cc1S(=O)(=O)N(C)/N=C/c1cnc2ccc(Br)cn12 | = | -7.16 |
| Cn1cncc1[C@@](N)(c1ccc(Cl)cc1)c1ccc2c(c1)c(-c1cccc(Cl)c1)cc(=O)n2C | = | -5.97 |
| CN1CC[C@@H](NC(=O)Nc2ccc(C#N)cc2)C[C@@H]1c1nc2ccccc2[nH]1 | > | -5 |
| CC(C)C[C@@H](C(=O)N[C@H](C(=O)OC1CCCC1)c1ccccc1)[C@H](O)C(=O)NO | > | -5 |
| COC1=CC(c2cc3ccccc3[nH]2)=N/C1=C\c1[nH]c(C)cc1C | = | -7.59 |
| NC(=O)c1ccc(I)c([N+](=O)[O-])c1 | > | -5 |
| CCCS(=O)(=O)Nc1ccc(F)c(C(=O)c2c[nH]c3ncc(Cl)cc23)c1F | > | -5 |
| CCc1c2c(nc3ccc(OC(=O)N4CCC(N5CCCCC5)CC4)cc13)-c1cc3c(c(=O)n1C2)COC(=O)[C@]3(O)CC [Irinotecan HCl] | = | -5.05 |
| CC(C)(C)c1cnc(CSc2cnc(NC(=O)C3CCNCC3)s2)o1 | = | -6.78 |
| Nc1nc(Cl)nc2c1ncn2[C@H]1C[C@H](O)[C@@H](CO)O1 | = | -7.09 |
| O=C(CCCCCCC(=O)Nc1ccccc1)NO | = | -5.94 |
